Method Notes: NOVARTIS: Cytotoxicity against human hepatocellular carcinoma cell line (Huh7)
Format: toxicity, cell-based, Huh-7
Particulars: Huh7 cells (hepatocellular carcinoma cell line)

>  <Compound>
C(=C1\C(c2ccccc2)=Nc2ccccc21)/c1c(-c2ccccc2)[nH]c2ccccc12

>  <CC50>
> 10 µM

$$$$
>  <Compound>
CCNC(=O)C=Cc1ccc(C(C)(C)C)cc1

>  <CC50>
> 100 µM

$$$$
>  <Compound>
COc1ccc(C2CC(=O)C3=C(C2)NC(C)=C(C(=O)OC(C)C)C3c2ccccc2Br)cc1OC (stereo unspecified)

>  <CC50>
23.3 µM

$$$$
>  <Compound>
CCOc1ccccc1-n1c(C(C)N(Cc2ccccc2)C(=O)Nc2cccc3ccccc23)nc2ccccc2c1=O (stereo unspecified)

>  <CC50>
> 10 µM

$$$$
>  <Compound>
CCOC(=O)C1=C(C)NC2=C(C(=O)CC(c3ccc(OC)c(OC)c3)C2)C1c1ccc(Br)cc1 (stereo unspecified)

>  <CC50>
> 100 µM

$$$$
>  <Compound>
CCOC(=O)c1[nH]nc(C(=O)c2ccccc2)c1-c1ccccc1

>  <CC50>
> 10 µM

$$$$
>  <Compound>
COc1cc(C=NNC(=O)Cc2nnc(N)s2)ccc1O

>  <CC50>
> 12.7 µM

$$$$
>  <Compound>
COc1cc(NC(C)CCCN(Cc2ccccc2OC)C(=O)C(C)C)c2ncccc2c1 (stereo unspecified)

>  <CC50>
> 7.7 µM

$$$$
>  <Compound>
CCN(CC)C(=O)c1cn(C2CCN(C(=O)CCc3cccc(OC)c3)CC2)nn1

>  <CC50>
> 10 µM

$$$$
>  <Compound>
CN(CCCNc1ccnc2cc(Cl)ccc12)S(=O)(=O)c1cccc2cccnc12

>  <CC50>
> 10 µM

$$$$
>  <Compound>
Cc1ccc(NC(=O)N2CCN(C(=O)c3nc(-c4ccccc4)nc(C)c3C(=O)OC(C)C)CC2C)cc1 (stereo unspecified)

>  <CC50>
> 10 µM

$$$$

---

Each item that follows carries a reported pEC50.
Test system: Plasmodium falciparum
Method Notes: NOVARTIS: Inhibition of Plasmodium falciparum 3D7 (drug-susceptible) proliferation in erythrocyte-based infection assay
Type: functional, organism-based
Particulars: Plasmodium falciparum, 3D7
pEC50: −log10 of the molar value.

>  <Molecule>
O=C(C1CCN(c2cccc3c2C(=O)N(C2CC2)C3=O)CC1)N1CCC(O)(c2ccc(Cl)cc2)CC1

>  <Operator Symbol>
<

>  <pEC50>
5.90

$$$$
>  <Molecule>
Clc1cccc(CSc2nc(Nc3ccc4c(c3)OCO4)c3ccccc3n2)c1

>  <Operator Symbol>
=

>  <pEC50>
5.93

$$$$
>  <Molecule>
O=C1N(c2ccccc2)C[C@@H]2C[C@@H](c3ccc4nsnc4c3)N3CCC[C@@]123

>  <Operator Symbol>
=

>  <pEC50>
6.05

$$$$
>  <Molecule>
CN(Cc1ccccc1)c1nc2c(c(=O)[nH]c(=O)n2C)n1CCCSc1ncccn1

>  <Operator Symbol>
<

>  <pEC50>
4.90

$$$$
>  <Molecule>
CCOC(=O)c1nc2nc(C)cc(O)n2n1

>  <Operator Symbol>
<

>  <pEC50>
6.13

$$$$
>  <Molecule>
COc1cc(NC(=O)Cn2ccc3ccc([N+](=O)[O-])cc32)cc(OC)c1OC

>  <Operator Symbol>
=

>  <pEC50>
6.36

$$$$
